Molecular target: T1, ETS2 (Homo sapiens, UniProt P15036 1-469)
T1 sequence: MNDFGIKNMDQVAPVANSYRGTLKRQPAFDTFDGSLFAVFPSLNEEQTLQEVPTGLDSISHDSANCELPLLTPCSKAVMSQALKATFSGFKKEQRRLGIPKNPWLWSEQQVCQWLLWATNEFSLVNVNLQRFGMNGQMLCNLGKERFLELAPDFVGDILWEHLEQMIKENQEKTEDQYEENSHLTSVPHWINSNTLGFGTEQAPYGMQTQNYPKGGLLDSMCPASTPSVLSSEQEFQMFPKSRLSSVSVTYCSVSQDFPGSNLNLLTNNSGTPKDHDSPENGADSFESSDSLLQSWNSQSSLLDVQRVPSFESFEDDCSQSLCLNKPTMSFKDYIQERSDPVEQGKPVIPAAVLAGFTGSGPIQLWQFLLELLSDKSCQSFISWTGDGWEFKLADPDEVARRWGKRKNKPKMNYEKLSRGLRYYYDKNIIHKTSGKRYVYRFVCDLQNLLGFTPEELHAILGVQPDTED
Experiment: BLI (OCTET); EMSA: 25 mM HEPES pH 8.0, 100 mM NaCl, 50 mM KAc, 5 mM MgCl2, 5% glycerol, 1 mM DTT, 0.1 mg/mL BSA, ~22 C, 5 nM probe; OCTET: 50 mM HEPES pH 8.0, 100 mM NaCl, 50 mM KAc, 5 mM MgCl2, 40 mM glutathione, 5 mg/mL BSA, 0.05% Tween-20
Conditions: protein: recombinant; tags: N-terminal GST; label: 5' biotin on strand 2 (Bio-T7 primer); blunt
reported_metric: Kd (nM)
Write the answer as a number in nM, unit excluded.

Dear colleague, I am looking for the recorded Kd of the following binder: ETS family probe (dsDNA) DNA 1: ACTTCCGGTTATAGTGAGTGCTATTA DNA 2: TAATAGCACTCACTATAACCGGAAGT
1.8
